Molecular target: Epidermal growth factor receptor (Homo sapiens, UniProt P00533, L858R)
Sequence (P00533 25-1210 L858R limits assumed): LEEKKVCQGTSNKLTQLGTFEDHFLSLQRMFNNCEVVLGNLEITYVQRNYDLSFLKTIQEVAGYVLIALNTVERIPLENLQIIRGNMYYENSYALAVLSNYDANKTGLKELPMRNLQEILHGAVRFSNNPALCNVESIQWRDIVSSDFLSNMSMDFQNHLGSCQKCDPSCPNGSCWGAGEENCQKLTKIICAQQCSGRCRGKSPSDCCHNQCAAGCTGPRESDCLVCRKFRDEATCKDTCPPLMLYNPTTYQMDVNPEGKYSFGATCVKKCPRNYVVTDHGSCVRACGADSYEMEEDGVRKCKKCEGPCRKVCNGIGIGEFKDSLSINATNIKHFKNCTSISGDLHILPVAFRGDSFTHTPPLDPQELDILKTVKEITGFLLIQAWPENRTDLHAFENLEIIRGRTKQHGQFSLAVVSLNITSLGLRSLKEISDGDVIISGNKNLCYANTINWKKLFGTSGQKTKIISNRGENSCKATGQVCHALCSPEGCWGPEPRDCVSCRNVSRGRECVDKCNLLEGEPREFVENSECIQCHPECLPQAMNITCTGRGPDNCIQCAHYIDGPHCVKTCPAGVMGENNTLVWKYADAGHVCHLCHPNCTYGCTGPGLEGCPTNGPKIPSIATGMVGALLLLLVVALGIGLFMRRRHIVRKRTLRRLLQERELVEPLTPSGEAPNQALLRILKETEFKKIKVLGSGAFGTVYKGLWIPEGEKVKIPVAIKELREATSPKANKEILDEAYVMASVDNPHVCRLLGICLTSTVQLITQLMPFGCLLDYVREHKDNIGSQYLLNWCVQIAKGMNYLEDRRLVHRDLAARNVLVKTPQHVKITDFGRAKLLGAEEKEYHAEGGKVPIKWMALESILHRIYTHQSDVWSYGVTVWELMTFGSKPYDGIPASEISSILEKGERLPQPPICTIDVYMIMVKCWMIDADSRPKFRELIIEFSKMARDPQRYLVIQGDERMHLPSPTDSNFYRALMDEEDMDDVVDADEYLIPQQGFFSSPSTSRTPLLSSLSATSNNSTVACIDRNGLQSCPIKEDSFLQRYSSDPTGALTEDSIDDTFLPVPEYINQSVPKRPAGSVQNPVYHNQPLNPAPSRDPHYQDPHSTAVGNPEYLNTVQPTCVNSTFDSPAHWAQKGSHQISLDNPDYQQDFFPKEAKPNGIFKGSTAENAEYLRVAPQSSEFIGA
Assay: Inhibition of GST-tagged human recombinant EGFR catalytic domain (668 to 1210 amino acids) L858R mutant expressed in Sf9 cells pre-incubated for 30 mins before ATP and substrate addition by homogeneous time-resolved FRET assay
pIC50: −log10 of the molar value.
measured attribute: pIC50

• COc1cc(N2CCN(C)CC2)ccc1Nc1ncc(Cl)c(Oc2cccc(NC(=O)/C(C#N)=C/c3ccc(SC)cc3)c2)n1 = 6.08

[1] COc1cc(N2CCN(C)CC2)ccc1Nc1ncc(Cl)c(Oc2cccc(NC(=O)/C(C#N)=C/c3ccc([N+](=O)[O-])cc3)c2)n1
[2] COc1cc(N2CCN(C)CC2)ccc1Nc1ncc(Cl)c(Oc2cccc(NC(=O)/C(C#N)=C/c3ccco3)c2)n1
[3] COc1cc(N2CCN(C)CC2)ccc1Nc1ncc(Cl)c(Oc2cccc(NC(=O)/C(=C/c3ccc(N(C)C)cc3)C(F)(F)F)c2)n1
Prompt: Sort by pIC50, descending. Show the ranking through the labels, in the order asked for.
Completion: 2, 1, 3

###

Let's go through some pIC50 measurements on Epidermal growth factor receptor (Homo sapiens) together.
pIC50: −log10 of the molar value.

Examples from the recorded data:
* COc1cc(N2CCN(C)CC2)ccc1Nc1ncc(Cl)c(Oc2cccc(NC(=O)/C(=C/c3ccc(N(C)C)cc3)C(F)(F)F)c2)n1 | < 5.00
* COc1cc(N2CCN(C)CC2)ccc1Nc1ncc(Cl)c(Oc2cccc(NC(=O)/C(C#N)=C/c3ccc(F)cc3)c2)n1 | 5.15

Continue with the molecule presented below.
Prompt: // pIC50 lookup, key: `COc1cc(N2CCN(C)CC2)ccc1Nc1ncc(Cl)c(Oc2cccc(NC(=O)CCC3CC3)c2)n1`
Completion: < 5.00

###

Target: Epidermal growth factor receptor (Homo sapiens, UniProt P00533, L858R)
Assay: Inhibition of GST-tagged human recombinant EGFR catalytic domain (668 to 1210 amino acids) L858R mutant expressed in Sf9 cells pre-incubated for 30 mins before ATP and substrate addition by homogeneous time-resolved FRET assay
measured attribute: IC50 (nM)

- COc1cc(N2CCN(C)CC2)ccc1Nc1ncc(Cl)c(Oc2cccc(NC(=O)/C(C#N)=C/c3cccc([N+](=O)[O-])c3)c2)n1: 1800

[a] COc1cc(N2CCN(C)CC2)ccc1Nc1ncc(Cl)c(Oc2cccc(NC(=O)CCC3CC3)c2)n1
[b] COc1cc(N2CCN(C)CC2)ccc1Nc1ncc(Cl)c(Oc2cccc(NC(=O)/C(C#N)=C/C(C)(C)C)c2)n1
Prompt: Of a versus b , which is the one with smaller reported IC50? Kindly give the label for the entry you pick.
Completion: b
(b: 1300 nM, a: 2000 nM)

###

// endpoint IC50 / system Epidermal growth factor receptor (Homo sapiens, UniProt P00533)
measured attribute: IC50 (µM)

[P] COc1cc(N2CCN(C)CC2)ccc1Nc1ncc(Cl)c(Oc2cccc(NC(=O)/C(C#N)=C/c3ccncc3)c2)n1
[Q] COc1cc(N2CCN(C)CC2)ccc1Nc1ncc(Cl)c(Oc2cccc(NC(=O)/C=C/C3CC3)c2)n1
Prompt: Recorded IC50 values differ for P and Q ; which one is higher? Mark your answer with the label of the selected entry.
Completion: P
(P: 8.7 µM, Q: 5.6 µM)

###

Molecular target: Epidermal growth factor receptor (Homo sapiens, UniProt P00533, L858R/T790M)
Sequence (P00533 25-1210 T790M/L858R limits assumed): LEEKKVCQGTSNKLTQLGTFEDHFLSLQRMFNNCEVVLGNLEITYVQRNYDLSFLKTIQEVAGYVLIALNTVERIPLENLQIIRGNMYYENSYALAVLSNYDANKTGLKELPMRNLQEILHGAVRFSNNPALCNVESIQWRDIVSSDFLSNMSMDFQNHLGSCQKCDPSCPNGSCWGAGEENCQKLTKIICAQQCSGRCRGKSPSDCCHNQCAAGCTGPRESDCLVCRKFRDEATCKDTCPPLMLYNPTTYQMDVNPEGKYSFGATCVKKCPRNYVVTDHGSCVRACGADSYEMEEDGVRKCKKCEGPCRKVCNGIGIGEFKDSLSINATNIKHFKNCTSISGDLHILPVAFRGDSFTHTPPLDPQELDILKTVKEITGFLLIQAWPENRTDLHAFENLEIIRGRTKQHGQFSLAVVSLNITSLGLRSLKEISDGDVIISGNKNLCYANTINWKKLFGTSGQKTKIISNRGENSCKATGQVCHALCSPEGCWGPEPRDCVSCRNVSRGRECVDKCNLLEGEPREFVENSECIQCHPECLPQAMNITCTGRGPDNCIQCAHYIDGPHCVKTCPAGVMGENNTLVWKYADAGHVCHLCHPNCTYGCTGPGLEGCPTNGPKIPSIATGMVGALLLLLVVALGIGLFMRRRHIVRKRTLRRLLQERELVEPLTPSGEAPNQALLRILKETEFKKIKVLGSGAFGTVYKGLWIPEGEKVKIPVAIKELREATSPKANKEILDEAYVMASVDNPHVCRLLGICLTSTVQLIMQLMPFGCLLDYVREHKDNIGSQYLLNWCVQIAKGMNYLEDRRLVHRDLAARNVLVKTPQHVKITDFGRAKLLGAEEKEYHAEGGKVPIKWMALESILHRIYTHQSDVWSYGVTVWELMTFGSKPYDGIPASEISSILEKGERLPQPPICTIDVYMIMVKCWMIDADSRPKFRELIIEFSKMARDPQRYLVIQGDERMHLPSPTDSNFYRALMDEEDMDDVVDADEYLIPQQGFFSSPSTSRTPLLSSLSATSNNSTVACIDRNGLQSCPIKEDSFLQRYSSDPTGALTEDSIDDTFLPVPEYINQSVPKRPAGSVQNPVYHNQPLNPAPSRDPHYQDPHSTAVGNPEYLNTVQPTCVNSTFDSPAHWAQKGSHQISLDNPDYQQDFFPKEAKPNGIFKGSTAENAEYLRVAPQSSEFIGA
Test: Inhibition of GST-tagged human recombinant EGFR catalytic domain (668 to 1210 amino acids) T790M/L858R mutant expressed in Sf9 cells pre-incubated for 30 mins before ATP and substrate addition by homogeneous time-resolved FRET assay
measured attribute: IC50 (nM)

Example results:
* COc1cc(N2CCN(C)CC2)ccc1Nc1ncc(Cl)c(Oc2cccc(NC(=O)/C(C#N)=C/c3ccc(C#N)cc3)c2)n1 | 940
* COc1cc(N2CCN(C)CC2)ccc1Nc1ncc(Cl)c(Oc2cccc(NC(=O)/C(C#N)=C/c3ccco3)c2)n1 | 330
* COc1cc(N2CCN(C)CC2)ccc1Nc1ncc(Cl)c(Oc2cccc(NC(=O)/C(C#N)=C/c3ccc([N+](=O)[O-])cc3)c2)n1 | 1200
* COc1cc(N2CCN(C)CC2)ccc1Nc1ncc(Cl)c(Oc2cccc(NC(=O)/C(=C/c3ccc(N(C)C)cc3)C(F)(F)F)c2)n1 | 2200

[A] COc1cc(N2CCN(C)CC2)ccc1Nc1ncc(Cl)c(Oc2cccc(NC(=O)/C(C#N)=C/C3CCCC3)c2)n1
[B] COc1cc(N2CCN(C)CC2)ccc1Nc1ncc(Cl)c(Oc2cccc(NC(=O)/C(=C/c3ccc(F)cc3)C(F)(F)F)c2)n1
[C] COc1cc(N2CCN(C)CC2)ccc1Nc1ncc(Cl)c(Oc2cccc(NC(=O)/C=C/C3CC3)c2)n1
Prompt: Endpoint returns the given molecules ordered by ascending IC50. Field: ranking. Enter the labels in the order requested.
Completion: C, A, B
